Below is a list of entries, each paired with its recorded relative KD to parent value.
Biological target: T1, His-tagged CEACAM1 (human, UniProt P13688 35-428)
T1 construct: 45 kDa SPR analyte; also called CEACAM1-HIS; CEACAM1 analyte
T1 sequence: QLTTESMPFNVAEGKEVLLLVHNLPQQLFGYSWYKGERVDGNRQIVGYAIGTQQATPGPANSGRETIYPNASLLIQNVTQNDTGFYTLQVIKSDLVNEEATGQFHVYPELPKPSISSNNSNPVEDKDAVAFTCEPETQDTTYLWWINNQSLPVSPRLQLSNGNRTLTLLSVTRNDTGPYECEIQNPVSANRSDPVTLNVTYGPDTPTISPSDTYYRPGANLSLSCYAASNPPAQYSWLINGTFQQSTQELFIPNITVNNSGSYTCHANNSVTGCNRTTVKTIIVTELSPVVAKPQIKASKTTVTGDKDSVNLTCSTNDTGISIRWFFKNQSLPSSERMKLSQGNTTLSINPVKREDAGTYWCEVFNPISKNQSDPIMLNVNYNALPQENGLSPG
Assay: SPR single-cycle, supernatant IgG captured
Answer using only a numeral; do not append any unit.

Enquiry: For CP09B03/CP08E05 (antibody, IgG4, V domains shown, IgG4 (S241P), kappa) VH: EVQLLESGGGLVQPGGSLRLSCAASGFTFNAHAISWVRQAPGKGLEWVATISSGGTYTYYPDSVKGRFTISRDNSKNTLYLQMNSLKAEDTAMYYCARHDFDYDAAWFAYWGQGTLVTVSS VL: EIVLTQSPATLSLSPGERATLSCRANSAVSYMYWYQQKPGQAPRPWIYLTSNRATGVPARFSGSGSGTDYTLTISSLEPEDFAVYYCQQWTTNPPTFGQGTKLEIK , what is its reported relative KD to parent?
Return: 5.7

Enquiry: Recorded relative KD to parent for VH1/Vκ8 S29A (antibody, IgG4, V domains shown, IgG4 (S241P), kappa; also called Parent; Parent (VH1/Vκ8 S29A)) VH: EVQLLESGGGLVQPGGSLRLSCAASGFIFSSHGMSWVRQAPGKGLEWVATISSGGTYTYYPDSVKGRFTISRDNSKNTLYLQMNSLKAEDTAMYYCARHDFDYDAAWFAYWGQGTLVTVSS VL: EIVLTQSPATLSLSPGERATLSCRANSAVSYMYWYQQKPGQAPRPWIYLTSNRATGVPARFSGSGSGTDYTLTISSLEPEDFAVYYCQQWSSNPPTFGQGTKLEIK , please?
Return: 1

Enquiry: Please look up its relative KD to parent: CP09C02/CP08G09 (antibody, IgG4, V domains shown, IgG4 (S241P), kappa) VH: EVQLLESGGGLVQPGGSLRLSCAASEFTFSDHAMSWVRQAPGKGLEWVATISSGGTYTYYPDSVKGRFTISRDNSKNTLYLQMNSLKAEDTAMYYCARHGFDYDAAWFAYWGQGTLVTVSS VL: EIVLTQSPATLSLSPGERATLSCRANSAVSYMYWYQQKPGQAPRPWIYLTSNRATGVPARFSGSGSGTDYTLTISSLEPEDFAVYYCQQWTAFPPTFGQGTKLEIK
Return: 3.9
